# ASSAY NOTES: Cmax in Sprague-Dawley rat at 3 mg/kg, po by LC-MS/MS analysis
# Type: ADME, organism-based
# RECORDED CONDITIONS: in vivo
REPORTED METRIC: Cmax (nM)
Please state the figure in nM; there is no need to write the unit.

Reported Cmax of O=C(NO)c1ccc(CNC(=O)[C@H]2Cc3c([nH]c4ccccc34)[C@H](c3ccc(Cl)cc3)N2)cc1 : 1390

###

Entries and their inhibition
# EXPERIMENTAL SYSTEM: Protein deacetylase HDAC6 (Homo sapiens) (UniProt Q9UBN7)
# Sequence (whole entry): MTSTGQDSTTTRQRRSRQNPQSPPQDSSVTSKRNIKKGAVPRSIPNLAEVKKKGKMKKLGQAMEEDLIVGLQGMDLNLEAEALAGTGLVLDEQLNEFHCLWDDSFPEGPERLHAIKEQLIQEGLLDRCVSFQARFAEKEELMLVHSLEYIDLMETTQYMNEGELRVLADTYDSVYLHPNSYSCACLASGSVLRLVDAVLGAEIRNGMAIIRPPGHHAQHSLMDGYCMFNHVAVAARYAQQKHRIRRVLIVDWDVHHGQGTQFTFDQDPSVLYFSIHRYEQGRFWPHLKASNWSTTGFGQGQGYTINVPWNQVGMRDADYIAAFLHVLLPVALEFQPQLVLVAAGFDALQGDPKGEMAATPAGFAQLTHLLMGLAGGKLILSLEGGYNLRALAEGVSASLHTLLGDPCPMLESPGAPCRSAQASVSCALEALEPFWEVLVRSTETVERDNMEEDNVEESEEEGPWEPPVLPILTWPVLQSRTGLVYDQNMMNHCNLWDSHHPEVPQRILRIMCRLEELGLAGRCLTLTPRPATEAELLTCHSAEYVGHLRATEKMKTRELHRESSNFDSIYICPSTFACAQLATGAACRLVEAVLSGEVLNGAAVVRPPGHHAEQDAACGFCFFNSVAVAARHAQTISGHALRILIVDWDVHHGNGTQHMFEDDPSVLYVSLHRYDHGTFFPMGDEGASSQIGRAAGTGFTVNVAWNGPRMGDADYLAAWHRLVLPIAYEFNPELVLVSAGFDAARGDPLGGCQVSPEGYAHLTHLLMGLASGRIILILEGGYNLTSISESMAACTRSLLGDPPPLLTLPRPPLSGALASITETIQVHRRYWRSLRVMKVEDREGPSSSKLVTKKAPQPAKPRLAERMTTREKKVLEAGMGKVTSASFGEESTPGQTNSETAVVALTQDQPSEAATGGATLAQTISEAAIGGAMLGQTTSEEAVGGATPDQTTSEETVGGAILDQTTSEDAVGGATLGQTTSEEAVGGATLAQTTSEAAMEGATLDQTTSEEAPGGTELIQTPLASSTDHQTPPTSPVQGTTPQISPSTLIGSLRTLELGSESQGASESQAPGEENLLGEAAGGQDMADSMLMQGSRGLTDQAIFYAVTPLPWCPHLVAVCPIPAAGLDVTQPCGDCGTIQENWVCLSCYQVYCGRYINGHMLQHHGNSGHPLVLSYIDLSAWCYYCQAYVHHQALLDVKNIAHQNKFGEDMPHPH
# ASSAY NOTES: Inhibition of HDAC6 (unknown origin) expressed in baculovirus infected in Sf9 cells using RHKKAc as substrate at 500 nM preincubated for 5 to 10 mins followed by substrate addition measured after 2 hrs by fluorescence based assay relative to control
# RECORDED CONDITIONS: time 5-130 min
Please state the figure in %; there is no need to write the unit.

COc1ccc([C@H]2N[C@H](C(=O)NCc3ccc(C(=O)NO)cc3)Cc3c2[nH]c2ccccc32)cc1 | 98.7
COc1ccc(CN2Cc3[nH]c4ccccc4c3C[C@@H]2C(=O)NCc2ccc(C(=O)NO)cc2)cc1 | 83.4
COc1ccc([C@@H]2N[C@H](C(=O)NCc3ccc(C(=O)NO)cc3)Cc3c2[nH]c2ccccc32)cc1 | 87.1
COc1ccc([C@H]2N[C@@H](C(=O)NCc3ccc(C(=O)NO)cc3)Cc3c2[nH]c2ccccc32)cc1 | 82.3
COc1ccc(C[C@H]2N[C@H](C(=O)NCc3ccc(C(=O)NO)cc3)Cc3c2[nH]c2ccccc32)cc1 | 81.5

Form: item COc1ccc([C@@H]2N[C@@H](C(=O)NCc3ccc(C(=O)NO)cc3)Cc3c2[nH]c2ccccc32)cc1 ; test system Protein deacetylase HDAC6 (Homo sapiens) (UniProt Q9UBN7); inhibition: 96.4
